Experiment: Plasma analysis and pharmacokinetics in Gottingen minipigs after intranasal administration (Example 4)
Conditions: female, Gottingen, minipig, plasma, inhaled or intranasal, 25 mg, AUC0->last of Remimazolam, minipig animal no. 3, intranasal 25 mg
endpointName: AUC(0-t) (ng·h/mL)
Return type: number; implicit unit ng·h/mL.

Query: State the recorded AUC(0-t) for this entry: "COC(=O)CC[C@@H]1N=C(c2ccccn2)c2cc(Br)ccc2-n2c(C)cnc21"
Reply: 7

---

Test: Plasma analysis and pharmacokinetics in Gottingen minipigs after intranasal administration (Example 4)
Details: female, Gottingen, minipig, plasma, inhaled or intranasal, 25 mg
endpointName: Tmax (min)
Write the number in min without appending the unit.

Query: Please look up its Tmax: "COC(=O)CC[C@@H]1N=C(c2ccccn2)c2cc(Br)ccc2-n2c(C)cnc21"
Reply: 15

---

Assay: Plasma analysis and pharmacokinetics in Gottingen minipigs after intranasal administration (Example 4)
Conditions: female, Gottingen, minipig, plasma, other: intranasal, 25 mg/animal
endpointName: concentration at 0.25 h (ng/mL)
Write the value in ng/mL as a bare number.

Query: # concentration at 0.25 h lookup, item "COC(=O)CC[C@@H]1N=C(c2ccccn2)c2cc(Br)ccc2-n2c(C)cnc21"
Reply: 50.4

---

Experiment: Systemic and local tolerability (clinical signs, rhinoscopy, NOAEL) in Gottingen minipigs, single intranasal administration (Example 4)
Details: female, Gottingen, minipig, in vivo, inhaled or intranasal, 25 mg/animal
endpointName: NOAEL

Query: NOAEL; subject: "COC(=O)CC[C@@H]1N=C(c2ccccn2)c2cc(Br)ccc2-n2c(C)cnc21"
Reply: ≥ 1.25 mg/kg

---

Experiment: Plasma analysis and pharmacokinetics in Gottingen minipigs after intranasal administration (Example 4)
Details: female, Gottingen, minipig, plasma, inhaled or intranasal, 1.25 mg/kg, Bioavailability (0-tlast), intranasal, minipig No. 2; reference Y08AG004 infusion (micropigs)
endpointName: bioavailability (%)
Answer format: numeric, % implied, no suffix.

Query: # input compound: "COC(=O)CC[C@@H]1N=C(c2ccccn2)c2cc(Br)ccc2-n2c(C)cnc21" ; wanted: its bioavailability
Reply: 5.63

---

Test: Plasma analysis and pharmacokinetics in Gottingen minipigs after intranasal administration (Example 4)
Conditions: female, Gottingen, minipig, plasma, inhaled or intranasal, 25 mg, Cmax of Remimazolam, minipig animal no. 1, intranasal 25 mg; extrapolated below LLOQ
endpointName: Cmax (ng/mL)
Just the number please, in ng/mL, no unit attached.

Query: # lookup: Cmax of "COC(=O)CC[C@@H]1N=C(c2ccccn2)c2cc(Br)ccc2-n2c(C)cnc21"
Reply: 17.4

---

Test: Plasma analysis and pharmacokinetics in Gottingen minipigs after intranasal administration (Example 4)
Conditions: female, Gottingen, minipig, plasma, inhaled or intranasal, 25 mg, Cmax of Remimazolam, minipig animal no. 3, intranasal 25 mg; extrapolated below LLOQ
endpointName: Cmax

Query: Which Cmax reading was recorded for the compound "COC(=O)CC[C@@H]1N=C(c2ccccn2)c2cc(Br)ccc2-n2c(C)cnc21" ?
Reply: ≤ 8.6 ng/mL

Cited source: patent US20260027128A1
